Entry source: patent US8153809B2

Tgt: P2X7 (UniProt Q99572)
Assay: pIC50 values for P2X7 (Table 1)
Format: cell-based
Readout Kind: pIC50

# Compound, Measurement
data = [
    ("Cc1c(CO)cccc1NC(=O)N1C=CC(=O)C[C@H]1c1ccc(F)cc1", 7.79),
    ("COC(=O)c1cccc(NC(=O)N2C=CC(=O)CC2c2ccc(F)cc2)c1C (centres unmarked)", 6.8),
    ("O=C1C=CN(C(=O)Nc2ccccc2)[C@H](c2ccc(F)cc2)C1", 6.18),
    ("COc1cccc(NC(=O)N2C=CC(=O)CC2c2ccc(F)cc2)c1OC (centres unmarked)", 6.89),
    ("O=C1C=CN(C(=O)Nc2cc3[nH]c(=O)[nH]c3cc2Br)C(c2ccc(F)cc2)C1 (centres unmarked)", 5.93),
    ("COc1cc(NC(=O)N2C=CC(=O)C[C@H]2c2cc(F)cc(F)c2)c(Br)cc1C (stereo in doubt) [Compound 47]", 6.987),
    ("Cc1ccc(NC(=O)N2C=CC(=O)C[C@H]2c2ccc(F)cc2)cc1C", 7.01),
    ("Cc1cc(Br)c(NC(=O)N2C=CC(=O)C[C@H]2c2ccc(F)cc2)cc1C#N", 6.84),
    ("COc1cc(NC(=O)N2C=CC(=O)C[C@H]2c2ccc(F)cc2)ccc1C", 6.737),
    ("O=C1C=CN(C(=O)NC23CC4CC(CC(C4)C2)C3)C(c2ccc(F)cc2)C1 (centres unmarked)", 5.98),
    ("Cn1ccc2ccc(NC(=O)N3C=CC(=O)CC3c3ccc(F)cc3)cc21 (centres unmarked)", 7.065),
    ("Cn1cc2cc(NC(=O)N3C=CC(=O)C[C@H]3c3ccc(F)cc3)ccc2n1", 6.87),
    ("COc1cc(NC(=O)N2C=CC(=O)CC2c2ccccc2)c(Br)cc1Cl (centres unmarked)", 6.425),
    ("Cc1cc(Cl)c(OCCO)cc1NC(=O)N1C=CC(=O)C[C@H]1c1ccc(F)cc1", 8.023),
    ("Cc1cccc(NC(=O)N2C=CC(=O)C[C@H]2c2ccc(F)cc2)c1", 7.12),
    ("COc1cccc(NC(=O)N2C=CC(=O)CC2c2ccc(F)cc2)c1 (centres unmarked)", 6.31),
    ("COc1ccc(C)c(NC(=O)N2C=CC(=O)C[C@H]2c2cccc(F)c2)c1", 8.01),
]
